- system.name: D(2) dopamine receptor (Homo sapiens)
- Sequence (P14416 whole entry): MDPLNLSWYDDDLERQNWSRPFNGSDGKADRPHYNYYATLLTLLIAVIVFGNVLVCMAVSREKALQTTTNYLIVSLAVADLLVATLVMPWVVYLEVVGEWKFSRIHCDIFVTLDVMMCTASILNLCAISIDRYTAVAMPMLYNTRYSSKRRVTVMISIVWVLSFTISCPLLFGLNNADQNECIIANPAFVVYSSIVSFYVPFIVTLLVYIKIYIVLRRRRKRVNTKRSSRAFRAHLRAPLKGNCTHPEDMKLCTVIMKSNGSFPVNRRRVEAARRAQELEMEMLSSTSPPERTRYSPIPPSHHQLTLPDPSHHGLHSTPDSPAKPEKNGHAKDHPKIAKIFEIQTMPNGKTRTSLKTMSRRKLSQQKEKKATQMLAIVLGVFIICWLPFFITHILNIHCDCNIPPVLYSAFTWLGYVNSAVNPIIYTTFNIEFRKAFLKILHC
- assay.summary: biochemical
- Type: cell-based, CHO
- Description: In vitro binding affinity to displace [3H]spiperone from the cloned human dopamine receptor D2 long in CHO cells
reported.endpoint: Ki (µM)

Here's what some known entries look like.
{"columns": ["compound", "Ki [µM]"],
 "data": [
  ["O=C1C[C@H](CN2CCN(c3ccccc3)CC2)N=C(c2ccccc2)N1", 7.3],
  ["c1ccc(C2=NCC(N3CCN(c4ccccc4)CC3)CCN2)cc1 (single isomer, unassigned)", 19],
  ["COc1ccc(Br)cc1C1=NCC[C@@H](CN2CCN(c3ccccc3)CC2)N1", 16]
]}

P = c1ccc(C2=NC[C@H](N3CCN(c4ccccc4)CC3)CCN2)cc1
Q = O=C1C[C@@H](CN2CCN(c3ccccc3)CC2)N=C(c2ccccc2)N1
R = COc1ccc(Br)cc1C1=NCC[C@H](CN2CCN(c3ccccc3)CC2)N1
Task: Give the ascending ranking of the items by reported Ki. Returns: the labels listed in the requested order.
Result: P, Q, R
(P: 10 µM, Q: 18 µM, R: 44 µM)
